# TARGET_ENTITY: GST-Hu-p50 (Homo sapiens, UniProt P19838 7-356)
# Sequence (P19838 7-356): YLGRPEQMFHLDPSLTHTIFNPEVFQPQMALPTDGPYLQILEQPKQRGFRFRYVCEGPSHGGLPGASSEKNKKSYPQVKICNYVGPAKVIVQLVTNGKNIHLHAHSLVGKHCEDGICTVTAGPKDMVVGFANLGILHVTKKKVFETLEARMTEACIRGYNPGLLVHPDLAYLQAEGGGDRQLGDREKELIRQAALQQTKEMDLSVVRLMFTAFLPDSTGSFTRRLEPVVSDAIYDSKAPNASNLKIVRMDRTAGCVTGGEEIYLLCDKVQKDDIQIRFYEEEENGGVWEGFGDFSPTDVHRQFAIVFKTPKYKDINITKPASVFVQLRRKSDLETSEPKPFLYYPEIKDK
# EXPERIMENTAL_PROTOCOL: protein-binding microarray (PBM); PBM: ~300 nM protein, 6 mM HEPES pH 7.8, 80 mM KCl, 0.5 mM EDTA, 0.5 mM EGTA, 6% glycerol, 35 ng/ul poly-dIdC, 1% milk, 1 h, room temperature; high values mean tight binding
# TEST_PARAMETERS: dsDNA, one strand shown
Under this convention, y denotes binding signal strictly below 5 z-score and n denotes binding signal at or above 5 z-score.

Quick check: binding signal of "CCGATTAACATCAGGGATATACCTGATGTTAATCGGGTCTTGATTCGCTTGACGCTGCTG" under 5 z-score?
y

Quick check: binding signal of "CCGATTAACATCAAAAGATCCCCTGATGTTAATCGGGTCTTGATTCGCTTGACGCTGCTG" under 5 z-score?
n

Quick check: binding signal of "CCGATTAACATCACCAAATCCCCTGATGTTAATCGGGTCTTGATTCGCTTGACGCTGCTG" under 5 z-score?
n

----------
# TARGET_ENTITY: GST-Nv-NF-kB (Ser allele) (Nematostella vectensis, UniProt A7UNT2 2-411)
# Sequence: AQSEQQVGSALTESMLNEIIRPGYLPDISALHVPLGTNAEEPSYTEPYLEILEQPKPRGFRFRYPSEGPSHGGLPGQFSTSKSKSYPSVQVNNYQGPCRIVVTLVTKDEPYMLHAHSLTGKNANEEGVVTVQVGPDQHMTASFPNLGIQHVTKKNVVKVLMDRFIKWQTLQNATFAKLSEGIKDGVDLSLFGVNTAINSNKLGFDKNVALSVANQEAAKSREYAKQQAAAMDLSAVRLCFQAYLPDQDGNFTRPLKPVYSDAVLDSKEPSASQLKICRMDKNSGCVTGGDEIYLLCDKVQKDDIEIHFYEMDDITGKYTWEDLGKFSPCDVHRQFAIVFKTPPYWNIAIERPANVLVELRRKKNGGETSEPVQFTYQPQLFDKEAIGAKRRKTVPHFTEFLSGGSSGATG
# EXPERIMENTAL_PROTOCOL: protein-binding microarray (PBM); PBM: ~300 nM protein, 6 mM HEPES pH 7.8, 80 mM KCl, 0.5 mM EDTA, 0.5 mM EGTA, 6% glycerol, 35 ng/ul poly-dIdC, 1% milk, 1 h, room temperature; Ap Aiptasia and Nv Nematostella (sea anemones) / Co Capsaspora / Aq Amphimedon (sponge) / Dm Drosophila / Hu human; RHD is the Rel homology domain; high values mean tight binding
# TEST_PARAMETERS: dsDNA, one strand shown
READOUT_TYPE: binding signal (z-score)
Supply the numeric figure in z-score, leaving out any unit text.

Example results:
# MACROMOLECULE_SEQUENCE, binding signal [z-score]
measured = [
    ("CCGATTAACATCAGGGGATTATATGATGTTAATCGGGTCTTGATTCGCTTGACGCTGCTG", 9.52),
    ("CCGATTAACATCAAGGGGGTATCTGATGTTAATCGGGTCTTGATTCGCTTGACGCTGCTG", 4.28),
    ("CCGATTAACATCAAGGAGTTCCCTGATGTTAATCGGGTCTTGATTCGCTTGACGCTGCTG", 1.06),
    ("CCGATTAACATCATGGGGAGGAATGATGTTAATCGGGTCTTGATTCGCTTGACGCTGCTG", 4.26),
]

# binding signal lookup, item "CCGATTAACATCAGGGGGGTTAATGATGTTAATCGGGTCTTGATTCGCTTGACGCTGCTG"
4.14
